assay: RP, Waters ACQUITY UPLC BEH C18, 100 × 2.1 mm, 1.7 µm, 0.3 mL/min, estimated dead time 0.73 min; A: water + 0.1% formic acid, pH 3; B: methanol + 0.1% formic acid, pH 3; gradient (min/%B) 0/10 14/90 16/90 18/10; details: stereoisomer not certain
Checkbox rule: LC retention time lower than 9 min = fulfilled; LC retention time not lower than 9 min = not fulfilled.

Reference set, count: 4
MOLECULE	CLASS ASSIGNMENT
COC1C(OC(C)=O)CC(=O)OC(C)CC=CC=CC(O)C(C)CC(CC=O)C1OC1OC(C)C(OC2CC(C)(O)C(OC(=O)CC(C)C)C(C)O2)C(N(C)C)C1O (stereo not drawn) [Josamycin]	not fulfilled
CN(C)CCC(c1ccc(Cl)cc1)c1ccccn1 (stereo not drawn) [Chlorpheniramine]	fulfilled
CCCCNC(=O)NS(=O)(=O)c1ccc(C)cc1 [Tolbutamide]	fulfilled
O=C1OCCN1N=Cc1ccc([N+](=O)[O-])o1 [Furazolidone]	fulfilled

Turning now to a further molecule:
[ask] Criterion: LC retention time strictly below 9 min. Is it met by CCC1CCCC(OC2CCC(N(C)C)C(C)O2)C(C)C(=O)C2=CC3C(C=CC4CC(OC5OC(C)C(OC)C(OC)C5OC)CC43)C2CC(=O)O1 (stereo not drawn) [Spinosyn A] ?
[reply] not fulfilled

---

test: RP, Waters ACQUITY UPLC BEH C18, 100 × 2.1 mm, 1.7 µm, 0.3 mL/min, estimated dead time 0.73 min; A: water + 0.1% formic acid, pH 3; B: methanol + 0.1% formic acid, pH 3; gradient (min/%B) 0/10 14/90 16/90 18/10; conditions: stereoisomer not certain
Labelling: LC retention time reported below 7 min becomes MET; at or above becomes NOT MET.

Answered cases to consult:
> print(dat)
                                   compound  class.assignment
1  CCc1ccc(C(=O)NN(C(=O)c2cc(C)cc(C)c2)C(C)(C)C)cc1 [Tebufenozide]           NOT MET
2   Nc1ccc(Cl)c(Cl)c1 [3.4-dichloroaniline]           NOT MET
3  CCOP(=S)(OCC)Oc1nc(Cl)n(C(C)C)n1 [Isazophos]           NOT MET

Below: the item to evaluate.
[ask] Lab note: confirm whether the reported LC retention time for this compound is below 7 min, equality not counting. compound: Cn1c([N+](=O)[O-])cnc1COC(N)=O [Ronidazole]
[reply] MET

---

experiment: RP, Waters ACQUITY UPLC BEH C18, 100 × 2.1 mm, 1.7 µm, 0.3 mL/min, estimated dead time 0.73 min; A: water + 0.1% formic acid, pH 3; B: methanol + 0.1% formic acid, pH 3; gradient (min/%B) 0/10 14/90 16/90 18/10; settings: stereoisomer not certain
Each entry below lists one item and its recorded log10 LC retention time value.
Values reflect log10 of reported LC retention time (min).

> print(dat)
                                compound           endpoint.label  endpoint.value
1  COP(=S)(OC)Oc1ccc([N+](=O)[O-])c(C)c1  log10 LC retention time            1.02

[ask] Need log10 LC retention time of COP(=S)(OC)SCN1C(=O)c2ccccc2C1=O , thanks.
[reply] 0.98

[ask] Here is the next compound: COCc1cnc(C2=NC(C)(C(C)C)C(=O)N2)c(C(=O)O)c1 (stereo not given)
[reply] 0.51

[ask] Then this compound: CNC(=O)Oc1ccccc1OC(C)C
[reply] 0.87

[ask] Here is the next compound: CCCCC(O)(Cn1cncn1)c1ccc(Cl)cc1Cl (stereo not given)
[reply] 1.08

[ask] Same question, CCOC(=O)C(Cl)Cc1cc(-n2nc(C)n(C(F)F)c2=O)c(F)cc1Cl (stereo not given) this time
[reply] 1.06

[ask] Then this compound: CCNc1nc(NC(C)C(C)C)nc(SC)n1 (stereo not given)
[reply] 1.06

[ask] Also, CC(C)(SC(=O)N1CCCCC1)c1ccccc1 [Dimepiperate] please.
[reply] 1.09

---

assay: RP, Waters ACQUITY UPLC BEH C18, 100 × 2.1 mm, 1.7 µm, 0.3 mL/min, estimated dead time 0.73 min; A: water + 0.1% formic acid, pH 3; B: methanol + 0.1% formic acid, pH 3; gradient (min/%B) 0/10 14/90 16/90 18/10; details: stereoisomer not certain
Please note: LC retention time exactly at 10 min is n. Only values below 10 min get y.

Examples with answers:
COMPOUND	CLASS ASSIGNMENT
CC(C)NC(=O)N1CC(=O)N(c2cc(Cl)cc(Cl)c2)C1=O	n
CCCN(CCC)C(=O)SCc1ccccc1	n
COc1cc2c(c3oc(=O)c4c(c13)CCOC4=O)C1C=COC1O2 (configuration not stated)	y

Consider the additional compound presented here.
[ask] Quick check: does CCN(CC)c1nc(C)cc(OP(=S)(OC)OC)n1 have LC retention time under 10 min?
[reply] n

---

assay: RP, Waters ACQUITY UPLC BEH C18, 100 × 2.1 mm, 1.7 µm, 0.3 mL/min, estimated dead time 0.73 min; A: water + 0.1% formic acid, pH 3; B: methanol + 0.1% formic acid, pH 3; gradient (min/%B) 0/10 14/90 16/90 18/10; conditions: stereoisomer not certain
ENDPOINT LABEL: log10 LC retention time (log10 of the value in min)
Hey, these are logged values: log10 of LC retention time, min being the unit before logging.

COMPOUND	ENDPOINT LABEL	ENDPOINT VALUE
COP(=O)(OC)OC1=C(Cl)C2C=CCC12 (stereo unspecified)	log10 LC retention time	0.97
CCC(CC)Nc1c([N+](=O)[O-])cc(C)c(C)c1[N+](=O)[O-]	log10 LC retention time	1.15
CON=C(C(=O)NC1C(=O)N2C(C(=O)[O-])=C(C[n+]3cccc4c3CCCC4)CSC12)c1csc(N)n1 (stereo unspecified)	log10 LC retention time	0.53
CC(C)NCC(O)c1cc(Cl)c(N)c(Cl)c1 (stereo unspecified)	log10 LC retention time	0.61
CN1CCN(c2c(F)cc3c(=O)c(C(=O)O)cn4c3c2OCN4C)CC1	log10 LC retention time	0.45
CC1(C)CON(Cc2ccccc2Cl)C1=O	log10 LC retention time	0.98
CN1CCC23c4c5ccc(O)c4OC2C(O)C=CC3C1C5 (stereo unspecified)	log10 LC retention time	0.46
C#CCOC(=O)C(C)Oc1ccc(Oc2ncc(Cl)cc2F)cc1 (stereo unspecified)	log10 LC retention time	1.06
O=C(NC(=O)c1c(F)cccc1F)Nc1ccc(CON=C(c2ccc(Cl)cc2)C2CC2)cc1	log10 LC retention time	1.13
Nc1nc(N)nc(NC2CC2)n1	log10 LC retention time	0.16

[ask] # query: log10 LC retention time of entry CC(C)(C)Nc1nc(N)[nH]c(=O)n1 [Deethyl-2-hydroxy-terbuthylazine]
[reply] 0.51

[ask] Can you handle O=C(NC(=O)c1c(F)cccc1F)Nc1ccc(OC(F)(F)C(F)OC(F)(F)F)c(Cl)c1 (stereo unspecified) next?
[reply] 1.10

[ask] Same thing, different compound: COC1CC(OC2C(C)OC(OC3C(C)=CCC4CC(CC5(C=CC(C)C(C6CCCCC6)O5)O4)OC(=O)C4C=C(C)C(O)C5OCC(=CC=CC3C)C45O)CC2OC)OC(C)C1O (stereo unspecified)
[reply] 1.20

[ask] Would you kindly repeat that for CC(=O)c1ccc2c(c1)N(CCCN(C)C)c1ccccc1S2 ?
[reply] 0.95

[ask] Input N#CN=C1SCCN1Cc1ccc(Cl)nc1
[reply] 0.80

[ask] Same thing, different compound: CCSCCSP(=O)(OC)OC
[reply] 0.88

[ask] Proceed to C=CCOC(Cn1ccnc1)c1ccc(Cl)cc1Cl (stereo unspecified)
[reply] 0.96

---

experiment: RP, Waters ACQUITY UPLC BEH C18, 100 × 2.1 mm, 1.7 µm, 0.3 mL/min, estimated dead time 0.73 min; A: water + 0.1% formic acid, pH 3; B: methanol + 0.1% formic acid, pH 3; gradient (min/%B) 0/10 14/90 16/90 18/10; details: stereoisomer not certain
ENDPOINT LABEL: LC retention time (min)
Give the quantity in min, number only.

Consider the worked cases shown below.
> print(dat)
                                   molecule     endpoint.label  endpoint.value
1  COc1cc(OC)nc(NC(=O)NS(=O)(=O)c2ncccc2C(=O)N(C)C)n1  LC retention time            5.39
2  COc1ccc(C(O)(c2cncnc2)C2CC2)cc1 (stereo not given)  LC retention time            7.72
3             CCOP(=S)(OCC)SCSP(=S)(OCC)OCC  LC retention time            13.4
4              O=C(O)Cn1c(=O)sc2cccc(Cl)c21  LC retention time            4.59

# ---- query molecule ----
[ask] Give the measured LC retention time of CON=C(C(=O)NC1C(=O)N2C(C(=O)O)=C(COC(N)=O)CSC12)c1ccco1 (stereo not given) .
[reply] 9.51
